Where these numbers come from: the supplement of paper PMC9112550

# Tested on: Escherichia coli TOP10
# assay protocol: shrunken log2 fold change of peptide-encoding DNA abundance (4.5 h post-induction vs induction); higher = less antimicrobial activity (less host growth inhibition)
# cond: time post-induction: 4.5 h; library: site-saturation at positions 5, 18, 19, 20
Could you please report measured shrunken log2 fold change for the items listed next?
One number for each entry.

Please review the following examples before continuing.
seq text	recorded measurement
RRIRDRPPRLPRPRPRPAHCPRP	-0.0402
RRIRARPPRLPRPRPRPNIKPRP	-0.14
RRIRSRPPRLPRPRPRPMAVPRP	-0.000652
RRIRTRPPRLPRPRPRPSPTPRP	0.0477
RRIRQRPPRLPRPRPRPKKKPRP	-0.0791

For the 6 sequences below, give their shrunken log2 fold change values.
1. RRIRSRPPRLPRPRPRPTNIPRP
2. RRIRVRPPRLPRPRPRPIQRPRP
3. RRIRHRPPRLPRPRPRPIKPPRP
4. RRIRVRPPRLPRPRPRPLPGPRP
5. RRIRERPPRLPRPRPRPVNGPRP
6. RRIRYRPPRLPRPRPRPAEWPRP

stdout:
1: -0.434; 2: -0.0384; 3: -0.236; 4: 0.547; 5: -0.323; 6: 0.00902

Count: 6. Required value per item: shrunken log2 fold change.
1. RRIRVRPPRLPRPRPRPEDDPRP
2. RRIRVRPPRLPRPRPRPVIYPRP
3. RRIRERPPRLPRPRPRPPWNPRP
4. RRIRWRPPRLPRPRPRPGWMPRP
5. RRIRVRPPRLPRPRPRPTRCPRP
6. RRIRYRPPRLPRPRPRPVKFPRP

stdout:
1: -0.17; 2: -0.39; 3: -0.246; 4: 0.366; 5: 0.404; 6: -0.133

For every listed record, write down its shrunken log2 fold change.
1. RRIRCRPPRLPRPRPRPYFKPRP
2. RRIRMRPPRLPRPRPRPECIPRP
3. RRIRNRPPRLPRPRPRPGNDPRP
4. RRIRIRPPRLPRPRPRPRREPRP
5. RRIRPRPPRLPRPRPRPTGTPRP
6. RRIRGRPPRLPRPRPRPPGRPRP

stdout:
[-0.931, 1.61, -0.0364, 0.123, 0.104, 1.35]

* * *

# Test system: Escherichia coli TOP10
# assay protocol: shrunken log2 fold change of peptide-encoding DNA abundance (4.5 h post-induction vs induction); higher = less antimicrobial activity (less host growth inhibition)
# cond: time post-induction: 4.5 h; library: site-saturation at positions 5, 18, 19, 20
Rule: MET for shrunken log2 fold change not less than -0.0009, NOT MET for anything less.

Would you please look over these solved cases?
seq text	label value
RRIRFRPPRLPRPRPRPKCYPRP	NOT MET
RRIRIRPPRLPRPRPRPPGIPRP	NOT MET

We now examine a further sequence.
stdin: Could you tell me if the measured shrunken log2 fold change of RRIRRRPPRLPRPRPRPKDKPRP reaches -0.0009 or more?
stdout: MET

* * *

# Tested on: Escherichia coli TOP10;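 also: peptides expressed intracellularly from a pBAD plasmid library in pooled LB shake-flask culture, induced with 0.3% L-arabinose, DNA abundance read by NGS, three biological replicates, DESeq2 with apeglm shrinkage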
# assay protocol: shrunken log2 fold change of peptide-encoding DNA abundance (4.5 h post-induction vs induction); higher = less antimicrobial activity (less host growth inhibition)
# cond: time post-induction: 4.5 h; library: site-saturation at positions 5, 18, 19, 20
measured endpoint: shrunken log2 fold change

Here are 6 sequences together with their reported answers.
seq text	shrunken log2 fold change
RRIRMRPPRLPRPRPRPWRDPRP	0.518
RRIRLRPPRLPRPRPRPDVGPRP	-0.0266
RRIRARPPRLPRPRPRPCEVPRP	3.46
RRIRERPPRLPRPRPRPQIAPRP	0.0377
RRIRKRPPRLPRPRPRPLMFPRP	0.0317
RRIRSRPPRLPRPRPRPNLAPRP	-0.14

Batch request: shrunken log2 fold change for each of the following sequences.
1. RRIRPRPPRLPRPRPRPGWIPRP
2. RRIRVRPPRLPRPRPRPQTGPRP
3. RRIRPRPPRLPRPRPRPCDDPRP
4. RRIRLRPPRLPRPRPRPYMHPRP
5. RRIRHRPPRLPRPRPRPDELPRP

stdout:
1: -0.0354; 2: -0.0393; 3: 0.0508; 4: -0.408; 5: -0.000777

Please state, for each entry, its recorded shrunken log2 fold change.
1. RRIRTRPPRLPRPRPRPQHKPRP
2. RRIRGRPPRLPRPRPRPVVSPRP
3. RRIRKRPPRLPRPRPRPKCIPRP

stdout:
[-0.0821, 0.62, 0.317]

For every listed record, write down its shrunken log2 fold change.
1. RRIRCRPPRLPRPRPRPVIYPRP
2. RRIRCRPPRLPRPRPRPQKEPRP

stdout:
[-0.493, -0.104]
